Source listed as PubChem BioAssay.

- experiment-description: blockers of RIG-like receptor reporter activation – cell-based, Sendai virus stimulus, luciferase, 10K MLSCN set, TLR/RLR signaling modifier project, primary screen (AID 602276);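 note: firefly luciferase from ISG56 promoter only with Renilla not read in this screen; 0% = Sendai virus plus DMSO and 100% = medium plus DMSO without virus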
- experimental-context: HEK293 RL24 IRF3 luciferase reporter, at 10 µM, stronger effect = higher value
measurement-type: inhibition (%)
One number for each entry, in %.

molecule: Cc1nc(C)c(C(=O)C2=C(O)C(=O)N(CCCn3ccnc3)C2c2ccccc2)s1 (stereo not drawn)
recorded-result: -7.2
//
molecule: CCOc1cccc(-n2nnnc2-c2ccc(OC)cc2)c1
recorded-result: 43

Record Brc1ccc(-c2csc(/N=C/N3CCOCC3)n2)cc1 . Reported inhibition: -73.1

* * *

Would you mind telling me the reported inhibition of each entry?
- experiment-description: endothelial E-selectin expression blockers – imaging, HUVEC, immunofluorescence, MLSMR starter and 10KST1 sets, primary screen (AID 487);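 note: signal is fraction of cell area covered by stained E-selectin grains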
- experimental-context: HUVEC TNFalpha-induced E-selectin immunofluorescence imaging, at 2 µM; stronger effect = higher value
Give bare numbers, in %.

compound: COc1ccc(-c2c(C(F)(F)F)oc3c(CN4CCN(C)CC4)c(O)ccc3c2=O)cc1
u: %
recorded-result: 0.6
//
compound: Cn1ccnc1SCC(=O)Nc1ccc2ccccc2c1
u: %
recorded-result: -14.1
//
compound: COc1ccc(NC(=O)C(C)Oc2ccc(/C(C)=N\O)cc2)cc1 (centres undefined)
u: %
recorded-result: 24.1

Please find the next compound below.
Record CC(=O)NC(C)c1nc2ccccc2n1C(C)C (centres undefined) . Reported inhibition: -50.6

* * *

- experiment-description: inhibitors of TNFa-induced NFkB p65 translocation, primary screen, imaging, HUVEC, MLSMR starter and 10KST1 sets (AID 438);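 note: compound added about 3h40 before a 20 min TNFalpha stimulation; signal is the nuclear over cytoplasmic p65 intensity ratio per well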
- experimental-context: HUVEC TNFa-induced p65 nuclear translocation; at 2 µM, stronger effect = higher value, 0% TNFa-plus-vehicle, 100% no-TNFa wells
measurement-type: inhibition (%)
Answers are plain numbers, in %.

molecule: O=C(Cn1nc(-c2ccc3c(c2)OCCO3)ccc1=O)Nc1ccc(N2CCOCC2)cc1
inhibition (%): 11.8
--
molecule: CCOC(=O)c1cc2cc(F)ccc2nc1C
inhibition (%): 4.9
--
molecule: O=C(Nc1ccc(F)cc1)N(CCCN1CCOCC1)Cc1cc2cc3c(cc2[nH]c1=O)OCO3
inhibition (%): -3

Please find the next molecule below.
Record COc1ccccc1NC(=O)c1cc2n(n1)C(C(F)(F)F)CC(c1ccc3c(c1)OCO3)N2 (centres undefined) . Reported inhibition: 2.4

* * *

- assayed-target: Alpha-2C adrenergic receptor (Homo sapiens)
- experiment-description: compounds altering alpha2C-coupled GIRK flux – cell-based, HEK293 alpha2C/GIRK1/2, thallium flux, primary screen (AID 624);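 note: slope of fluorescence ratio to pre-addition baseline per second over 15 to 24 s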
- experimental-context: thallium flux BTC fluorescence, at 10 µM, actives lie on both sides
Would you mind telling me the reported slope of each entry?
One number for each entry.

molecule: O=C(NC12CC3CC(CC(C3)C1)C2)N1CCN(C(=O)C2CCCO2)CC1 (centres undefined)
recorded-result: 0.00603
//
molecule: Cc1ccc(NC(=O)CN2CC(C)SC2=NC2CCCCC2)cc1 (centres undefined)
recorded-result: 0.00585
//
molecule: COc1cc(C2NC(=O)NC(C)=C2C(=O)OCC2CCCO2)ccc1O (centres undefined)
recorded-result: 0.00604
//
molecule: Cc1ccc2c(c1C)NC(=O)C2(O)CC(=O)c1ccc2c(c1)OCO2 (centres undefined)
recorded-result: 0.00591
//
molecule: COc1ccc(-c2noc(CCCC(=O)O)n2)cc1
recorded-result: 0.00595
//
molecule: c1cc(CNc2ccc3c(c2)OCO3)ccn1
recorded-result: 0.00585

For each of the items listed, what is its slope?
1. CN(CCNS(=O)(=O)c1ccc2c(c1)oc(=O)n2C)Cc1ccccc1
2. O=C(c1ccccc1Cl)N1CCc2ccccc2C1
3. CC1CCN(c2nc3c(c(=O)[nH]c(=O)n3C)n2CCSc2ncccn2)CC1

output:
1. 0.0075
2. 0.00482
3. 0.00584

For each of the items listed, what is its slope?
1. COC(=O)c1ccc(NC(=O)Cn2nnc3ccccc32)cc1
2. COc1ccc(C2C(C#N)=C(N)Oc3cc4c(cc32)OCO4)cc1 (centres undefined)
3. COCCNC(=O)C(c1ccncc1)N(C(=O)Cn1nnc2ccccc21)c1ccc(OC)cc1 (centres undefined)
4. CCCn1c(=NC(C)=O)c(C#N)cc2c(=O)n3cccc(C)c3nc21
5. CCN(CC)C(=O)C1CCCc2c1[nH]c1ccc(Cl)cc21 (centres undefined)
6. N#Cc1nc(-c2ccco2)oc1N1CCN(c2cccc(Cl)c2)CC1

output:
[0.0057, 0.00586, 0.00706, 0.0086, 0.00741, 0.00657]

For each of the items listed, what is its slope?
1. COc1cccc(N2CCN(Cc3nc(N)nc(Nc4ccccc4)n3)CC2)c1
2. O=S(=O)(c1cc(Cl)ccc1Br)N1CCOCC1
3. Cc1ccccc1-n1c(Cn2c(=O)sc3ccccc32)nnc1SCC(N)=O
4. CN(Cc1nc(-c2ccncc2)no1)S(=O)(=O)c1ccc(Cl)cc1

output:
1: 0.00543; 2: 0.00323; 3: 0.00845; 4: 0.00478

* * *

Would you mind telling me the reported NADPH fluorescence slope of each entry?
- assayed-target: Voltage-gated potassium channel subunit beta-2 (Rattus norvegicus) (UniProt P62483)
- Sequence (P62483 whole entry, looked up): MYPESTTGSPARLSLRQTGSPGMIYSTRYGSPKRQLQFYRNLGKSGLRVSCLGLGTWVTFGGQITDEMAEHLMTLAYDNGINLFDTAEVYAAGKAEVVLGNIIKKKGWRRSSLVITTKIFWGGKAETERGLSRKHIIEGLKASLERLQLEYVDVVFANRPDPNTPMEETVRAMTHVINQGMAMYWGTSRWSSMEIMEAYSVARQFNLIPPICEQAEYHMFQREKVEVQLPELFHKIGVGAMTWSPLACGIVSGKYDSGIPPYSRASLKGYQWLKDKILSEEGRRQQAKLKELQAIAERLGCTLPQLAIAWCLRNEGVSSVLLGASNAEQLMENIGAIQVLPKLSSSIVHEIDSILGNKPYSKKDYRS
- experiment-description: enhancers of rat Kvbeta2 NADPH turnover – biochemical, NADPH fluorescence, primary screen (AID 623);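 note: fluorescence intensity change per second fitted from 20 to 320 s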
- experimental-context: Recombinant KvBeta, NADPH fluorescence decrease slope, 10 min; at 10 µM; stronger effect = lower value
The source made the active and inactive calls.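 Rule for the calls: active = NADPH fluorescence slope more negative than the mean of all samples by about 3 SD, 99.7% confidence; inactive = the rest.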

compound: O=C(CSc1nc(-c2ccccc2)cs1)NC(=O)NCc1ccco1
NADPH fluorescence slope: 3.1e-06 (inactive)
--
compound: CC1=C(C(=O)NCc2ccco2)C2(CCC(C)CC2)OC1=O (stereo not drawn)
NADPH fluorescence slope: -2.5e-05 (inactive)
--
compound: Cc1cccc(NC(=O)CCN2CCN(C/C=C/c3ccccc3)CC2)c1
NADPH fluorescence slope: -2.6e-05 (inactive)
--
compound: COc1ccccc1NC(=O)CSc1nnnn1-c1ccc2c(c1)OCO2
NADPH fluorescence slope: 3.9e-05 (inactive)

For each of the items listed, what is its NADPH fluorescence slope?
1. COc1ccc(Cc2nc(-c3ccc(NC(=O)c4cccnc4)cc3)no2)cc1
2. COc1ccc(NC(=O)CN(c2cc(C)cc(C)c2)S(=O)(=O)c2c(C)noc2C)cc1OC
3. CCOC(=O)CSc1nnc(-c2ccc(NS(=O)(=O)c3ccc(C)cc3)cc2)o1

output:
-5e-05 (inactive)
-2.2e-05 (inactive)
-4.4e-05 (inactive)

* * *

- assayed-target: Alpha-2C adrenergic receptor (Homo sapiens)
- experiment-description: compounds altering alpha2C-coupled GIRK flux – cell-based, HEK293 alpha2C/GIRK1/2, thallium flux, primary screen (AID 624);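 note: slope of fluorescence ratio to pre-addition baseline per second over 15 to 24 s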
- experimental-context: thallium flux BTC fluorescence, at 10 µM, actives lie on both sides
Calls of active or inactive are those of the source.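 How the source made its calls: active means fluorescence slope after compound addition differing from the mean of all screened samples at 99.7% confidence, in either direction; inactive means the rest.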
measurement-type: slope

See these solved cases before continuing.
molecule: COc1cccc(OCC(=O)Nc2ccccc2C(N)=O)c1
assayed-target: Alpha-2C adrenergic receptor (Homo sapiens)
slope: 0.00589 (inactive)

molecule: CCOC(=O)C(NC(=O)OC(C)C)(Nc1nccs1)C(F)(F)F (configuration not stated)
assayed-target: Alpha-2C adrenergic receptor (Homo sapiens)
slope: 0.00583 (inactive)

molecule: c1ccc(-c2cnc(CSc3ncnc4sccc34)o2)cc1
assayed-target: Alpha-2C adrenergic receptor (Homo sapiens)
slope: 0.00879 (inactive)

For each of the items listed, what is its slope?
1. Cc1ccc(-c2cc(C(F)F)nc(NCC3CCCO3)n2)cc1 (configuration not stated)
2. COc1ccc(Cc2nc(-c3ccc(NC(=O)c4cccnc4)cc3)no2)cc1

output:
["0.00547 (inactive)", "0.0059 (inactive)"]

For each of the items listed, what is its slope?
1. CC(C)C(C(=O)Nc1ccc2c(c1)OCCO2)N1C(=O)c2ccccc2C1=O (configuration not stated)
2. Cc1c(NC2=NC3(CCCCC3)Cc3ccccc32)c(=O)n(-c2ccccc2)n1C

output:
0.00511 (inactive)
0.00622 (inactive)

* * *

- experiment-description: TLR3 IRF3 reporter activation blockers – cell-based, poly I:C stimulus, luciferase, 10K MLSCN set, primary screen (AID 602277)
- experimental-context: HEK293-TLR3 RL24 IRF3 luciferase reporter, at 10 µM, stronger effect = higher value
measurement-type: inhibition (%)
Answers are plain numbers, in %.

For each of the items listed, what is its inhibition?
1. Cc1csc(NC(=O)c2ccoc2C)n1
2. CCCCNC(=O)C(C#N)c1nc2ccccc2nc1N1CCCC1 (configuration not stated)

output:
[-87.5, 14]

For each of the items listed, what is its inhibition?
1. CCN(CC)C(=O)c1ccc(CS(=O)(=O)c2ccc(OC)cc2)o1
2. Cn1c(-c2ccc(C(C)(C)C)cc2)n[nH]c1=S
3. COc1ccc(N2CCN(C(c3cccs3)c3nnnn3C3CCCC3)CC2)cc1 (configuration not stated)
4. CCOC(=O)N1CCC(N(C(=O)Nc2cccc(OC)c2)C(C)CC)CC1 (configuration not stated)
5. COC(=O)c1cccc(Oc2nc3c(c(=O)n(C)c(=O)n3C)n2C(C)C)c1
6. CCN(CC)S(=O)(=O)c1cccc(-c2nnc(SCC(N)=O)n2CCc2ccccc2)c1
7. N#CCCCCn1c(-c2cncs2)nc2ccccc21
8. CCn1cc(C(=O)N=c2sc3ccccc3n2C)c(=O)c2ccc(C)nc21

output:
[-10.1, -25.2, 11.1, 11.5, 28.3, 11.1, 15.9, 23]

For each of the items listed, what is its inhibition?
1. CSc1nc(=NC(C)=O)ss1
2. CCOC(=O)C1=C(C)NC2=C(C(=O)CC(C)(C)C2)C1c1ccc(N(C)C)cc1 (configuration not stated)
3. O=C(NCc1cccnc1)C1c2ccccc2C(=O)N1Cc1ccco1 (configuration not stated)
4. CC(C)(Oc1ccc(Cl)cc1)C(=O)NC1CCSC1=O (configuration not stated)
5. Cc1cc(C)nc(N2CCC(C(=O)NC3CCCCCC3)CC2)n1
6. CCc1nnc(NC(=O)c2ccc(COc3ccccc3)o2)s1
7. O=C1c2ccccc2C(Nc2ccc3c(c2)OCCO3)N1Cc1ccc2c(c1)OCO2 (configuration not stated)
8. CCOc1ccccc1N(CC(=O)NC1CCCC1)C(=O)CCCC(=O)Nc1ccccn1

output:
[8.14, 2.28, 11, 15.9, 16.2, 3.46, 50.1, 19.7]

For each of the items listed, what is its inhibition?
1. Cc1ccc(N(C)C(=O)N2CCN(c3ccccn3)CC2)cc1
2. COc1cccc(C2C3=C(N=C4SCC(=O)N42)c2ccccc2CC3)c1OC (configuration not stated)
3. CCOC(=O)c1ccccc1NC(=O)N1CCn2c(C)ccc2C1CC (configuration not stated)
4. CCOc1ccc(N(CC(=O)Nc2cccc(OC)c2)S(=O)(=O)c2c(C)noc2C)cc1
5. Cn1ccnc1SCC(=O)Nc1ccc2ccccc2c1

output:
[27.2, 29.3, 8.3, 22.1, -32.6]
